Test: Single dose PK assay, ip
Assay type: in vivo, BALB/c mice
Settings: female, BALB/c, mouse; mice, ip, single dose 100 μg/g, plasma
Description: An initial single dose PK experiment was performed using 100 μg/g of formulated SK-03-92 administered ip to twenty-one female, 5–6 week old BALB/c mice (7 per cohort for 3 cohorts, NCI) under parameters established previously. […] Samples were analyzed with a Shimadzu Prominence HPLC system (Kyoto, Japan) with a Halo C18 column (MAC-MOD Analytical Inc., Chadds Ford, PA, USA). […] The ratio of peak area of SK-03-92 was calculated to estimate the drug concentration(s) using a pre-built calibration curve. […]
observation_type: Cmax (µg/mL)
Give the quantity in µg/mL, number only.

Query: In one line, give reported Cmax of the entry COc1cc(O)cc(/C=C/c2cc3ccccc3s2)c1 [SK-03-92] .
Result: 1.64
